- STUDY SYSTEM: Fno (F420H2:NADP+ oxidoreductase) (Archaeoglobus fulgidus, UniProt O29370, I135A)
- Sequence (O29370 whole entry I135A, one chain of several): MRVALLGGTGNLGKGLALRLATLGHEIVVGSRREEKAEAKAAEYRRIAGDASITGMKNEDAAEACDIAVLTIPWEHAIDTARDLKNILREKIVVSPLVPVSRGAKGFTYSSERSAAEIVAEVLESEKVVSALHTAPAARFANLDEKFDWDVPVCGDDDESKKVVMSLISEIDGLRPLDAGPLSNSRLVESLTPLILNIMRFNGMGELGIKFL
- EXPERIMENTAL PROTOCOL: tryptophan fluorescence titration, fit with Hill coefficient
- Format: binding
- CONDITION SET: read-out: Kd^NADPH
pKd: −log10 of the molar value.
PROPERTY LABEL: pKd

[
  {
    "SMILES DATA": "NC(=O)C1=CN([C@@H]2O[C@H](COP(=O)(O)OP(=O)(O)OC[C@H]3O[C@@H](n4cnc5c(N)ncnc54)[C@H](OP(=O)(O)O)[C@@H]3O)[C@@H](O)[C@H]2O)C=CC1",
    "VALUE OBSERVED": 8.17
  }
]

----------
- STUDY SYSTEM: Fno (F420H2:NADP+ oxidoreductase) (Archaeoglobus fulgidus, UniProt O29370, I135G)
- Sequence (O29370 whole entry I135G, one chain of several): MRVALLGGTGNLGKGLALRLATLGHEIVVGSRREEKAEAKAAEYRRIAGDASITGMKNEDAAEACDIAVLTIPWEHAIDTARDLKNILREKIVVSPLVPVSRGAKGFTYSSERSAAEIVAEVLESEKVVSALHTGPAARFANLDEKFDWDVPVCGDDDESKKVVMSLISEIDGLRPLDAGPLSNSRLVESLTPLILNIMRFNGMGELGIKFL
- EXPERIMENTAL PROTOCOL: tryptophan fluorescence titration, fit with Hill coefficient
- Type: binding
- CONDITION SET: read-out: Kd^NADPH

[
  {
    "SMILES DATA": "NC(=O)C1=CN([C@@H]2O[C@H](COP(=O)(O)OP(=O)(O)OC[C@H]3O[C@@H](n4cnc5c(N)ncnc54)[C@H](OP(=O)(O)O)[C@@H]3O)[C@@H](O)[C@H]2O)C=CC1",
    "UNIT": "nM",
    "Kd": 1.5
  }
]

----------
- STUDY SYSTEM: Fno (F420H2:NADP+ oxidoreductase) (Archaeoglobus fulgidus, UniProt O29370, I135G)
- EXPERIMENTAL PROTOCOL: tryptophan fluorescence titration, fit with Hill coefficient
- Type: binding
- CONDITION SET: read-out: Kd^FO
pKd: −log10 of the molar value.
PROPERTY LABEL: pKd

[
  {
    "SMILES DATA": "O=c1nc2n(C[C@H](O)[C@H](O)[C@H](O)CO)c3cc(O)ccc3cc-2c(=O)[nH]1",
    "STUDY SYSTEM": "Fno (F420H2:NADP+ oxidoreductase) (Archaeoglobus fulgidus, UniProt O29370, I135G)",
    "PROPERTY LABEL": "pKd",
    "VALUE OBSERVED": 8.16
  }
]
